molecular target: GST-HIAP1(cIAP-2) BIR 3 (Homo sapiens, UniProt Q13489); test: Fluorescence polarization-based competition assay, cIAP-2 Bir3
Sequence (Q13489 236-349): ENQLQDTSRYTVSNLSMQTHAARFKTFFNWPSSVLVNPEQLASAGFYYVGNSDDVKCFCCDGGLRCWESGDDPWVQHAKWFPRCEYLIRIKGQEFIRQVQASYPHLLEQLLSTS
pIC50: −log10 of the molar value.
pIC50 by entry:
READOUT LABEL: pIC50

[
  {
    "COMPOUND STRUCTURE STRING": "CC(C)[C@H](NC(=O)[C@H](C)N)C(=O)N1CCC[C@H]1CN(CCc1ccccc1)C(=O)c1ccccc1",
    "READOUT LABEL": "pIC50",
    "MEASUREMENT": "> 6.00"
  },
  {
    "COMPOUND STRUCTURE STRING": "CN[C@@H](C)C(=O)N[C@H](C(=O)N1CCC[C@H]1CN(CCc1ccccc1)C(=O)CCN)C(C)(C)C",
    "READOUT LABEL": "pIC50",
    "MEASUREMENT": "> 6.00"
  },
  {
    "COMPOUND STRUCTURE STRING": "CN[C@@H](C)C(=O)N[C@H](C(=O)N1CCC[C@H]1CNCCc1ccccc1)C(C)(C)C",
    "READOUT LABEL": "pIC50",
    "MEASUREMENT": "> 5.00"
  },
  {
    "COMPOUND STRUCTURE STRING": "CC[C@H](N)C(=O)N[C@H](C(=O)N1CCC[C@H]1CN(C(C)=O)[C@@H]1CCCc2ccccc21)C(C)C",
    "READOUT LABEL": "pIC50",
    "MEASUREMENT": "< 5.00"
  },
  {
    "COMPOUND STRUCTURE STRING": "CN[C@@H](C)C(=O)N[C@H](C(=O)N1CCC[C@H]1CN(CCc1ccccc1)C(=O)[C@@H](N)Cc1ccccc1)C(C)(C)C",
    "READOUT LABEL": "pIC50",
    "MEASUREMENT": "> 6.00"
  },
  {
    "COMPOUND STRUCTURE STRING": "CNCC(=O)N(CCc1ccccc1)C[C@@H]1CCCN1C(=O)[C@@H](NC(=O)[C@H](C)NC)C(C)(C)C",
    "READOUT LABEL": "pIC50",
    "MEASUREMENT": "> 6.00"
  },
  {
    "COMPOUND STRUCTURE STRING": "CN[C@@H](C)C(=O)N[C@H](C(=O)N1CCC[C@H]1CN(CCc1ccccc1)C(=O)[C@@H](C)N)C(C)(C)C",
    "READOUT LABEL": "pIC50",
    "MEASUREMENT": "> 6.00"
  },
  {
    "COMPOUND STRUCTURE STRING": "CC[C@H](N)C(=O)N[C@H](C(=O)N1CCC[C@H]1CNC(=O)Cc1ccccc1)C(C)C",
    "READOUT LABEL": "pIC50",
    "MEASUREMENT": "< 5.00"
  },
  {
    "COMPOUND STRUCTURE STRING": "CC(C)[C@H](NC(=O)[C@H](C)N)C(=O)N1CCC[C@H]1CN(CCc1ccccc1)C(=O)Cc1ccccc1",
    "READOUT LABEL": "pIC50",
    "MEASUREMENT": "> 6.00"
  },
  {
    "COMPOUND STRUCTURE STRING": "CC(C)[C@H](NC(=O)[C@H](C)N)C(=O)N1CCC[C@H]1CN(CCCCO)CCc1ccccc1",
    "READOUT LABEL": "pIC50",
    "MEASUREMENT": "> 6.00"
  },
  {
    "COMPOUND STRUCTURE STRING": "CN[C@@H](C)C(=O)N[C@H](C(=O)N1CCC[C@H]1CN(CCc1ccccc1)C(=O)CNc1ccccc1)C(C)(C)C",
    "READOUT LABEL": "pIC50",
    "MEASUREMENT": "> 6.00"
  },
  {
    "COMPOUND STRUCTURE STRING": "CN[C@@H](C)C(=O)N[C@H](C(=O)N1CCC[C@H]1CN(CCc1ccccc1)C(=O)Cc1ccccc1)C(C)(C)C",
    "READOUT LABEL": "pIC50",
    "MEASUREMENT": "> 6.00"
  },
  {
    "COMPOUND STRUCTURE STRING": "CN[C@@H](C)C(=O)N[C@H](C(=O)N1CCC[C@H]1CN(CCc1ccccc1)C(=O)CCCc1ccccc1)C(C)(C)C",
    "READOUT LABEL": "pIC50",
    "MEASUREMENT": "> 6.00"
  },
  {
    "COMPOUND STRUCTURE STRING": "CC(C)[C@H](NC(=O)[C@H](C)N)C(=O)N1CCC[C@H]1CS(=O)(=O)CCc1ccccc1",
    "READOUT LABEL": "pIC50",
    "MEASUREMENT": "> 5.00"
  }
]

----------
target: GST-XIAP BIR3RING (Homo sapiens); experiment: Fluorescence polarization-based competition assay, XIAP Bir3-RING
IC50 by entry:
READOUT LABEL: IC50

[
  {
    "COMPOUND STRUCTURE STRING": "CN[C@@H](C)C(=O)N[C@H](C(=O)N1CCC[C@H]1CN(CCc1ccccc1)C(=O)CN)C(C)(C)C",
    "MEASUREMENT": "< 1000 nM"
  },
  {
    "COMPOUND STRUCTURE STRING": "CC(C)[C@H](NC(=O)[C@H](C)N)C(=O)N1CCC[C@H]1COCc1ccccc1",
    "MEASUREMENT": "< 10000 nM"
  },
  {
    "COMPOUND STRUCTURE STRING": "CN[C@@H](C)C(=O)N[C@H](C(=O)N1CCC[C@H]1CN(CCc1ccccc1)C(=O)CN(C)C)C(C)(C)C",
    "MEASUREMENT": "< 1000 nM"
  },
  {
    "COMPOUND STRUCTURE STRING": "COCC(=O)N(CCc1ccccc1)C[C@@H]1CCCN1C(=O)[C@@H](NC(=O)[C@H](C)N)C(C)C",
    "MEASUREMENT": "< 10000 nM"
  },
  {
    "COMPOUND STRUCTURE STRING": "CN[C@@H](C)C(=O)N[C@H](C(=O)N1CCC[C@H]1CN(CCc1ccccc1)C(=O)c1ccccc1)C(C)(C)C",
    "MEASUREMENT": "< 1000 nM"
  },
  {
    "COMPOUND STRUCTURE STRING": "CC(C)[C@H](NC(=O)[C@H](C)N)C(=O)N1CCC[C@H]1CN(CCc1ccccc1)C(=O)c1ccccc1",
    "MEASUREMENT": "< 1000 nM"
  },
  {
    "COMPOUND STRUCTURE STRING": "CN[C@@H](C)C(=O)N[C@H](C(=O)N1CCC[C@H]1CN(CCc1ccccc1)C(=O)C(F)(F)F)C(C)(C)C",
    "MEASUREMENT": "< 1000 nM"
  },
  {
    "COMPOUND STRUCTURE STRING": "CC(C)[C@H](NC(=O)[C@H](C)N)C(=O)N1CCC[C@H]1CN(CCc1ccccc1)C(=O)C(F)(F)F",
    "MEASUREMENT": "< 1000 nM"
  }
]

----------
IC50 by entry:
target: XIAP Bir2-Bir3-RING (GST-linker BIR2 BIR3RING) (Homo sapiens, UniProt P98170); experiment: Caspase de-repression assay using cellular extracts (apoptosome), XIAP Bir2-Bir3-RING; conditions: 293 cell S100 extract
Sequence (P98170 93-497): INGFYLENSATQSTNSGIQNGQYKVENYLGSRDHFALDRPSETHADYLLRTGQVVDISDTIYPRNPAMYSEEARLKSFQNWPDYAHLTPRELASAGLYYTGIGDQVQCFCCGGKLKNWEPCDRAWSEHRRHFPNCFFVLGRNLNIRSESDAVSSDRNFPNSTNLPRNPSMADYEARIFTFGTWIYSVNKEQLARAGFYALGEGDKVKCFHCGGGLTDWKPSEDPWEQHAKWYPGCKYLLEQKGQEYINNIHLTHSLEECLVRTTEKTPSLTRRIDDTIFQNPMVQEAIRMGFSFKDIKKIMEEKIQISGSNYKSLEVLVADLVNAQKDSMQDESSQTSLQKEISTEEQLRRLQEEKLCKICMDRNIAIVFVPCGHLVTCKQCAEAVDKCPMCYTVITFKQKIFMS
READOUT LABEL: IC50

[
  {
    "COMPOUND STRUCTURE STRING": "CC[C@H](N)C(=O)N[C@H](C(=O)N1CCC[C@H]1CN(C(C)=O)[C@@H]1CCCc2ccccc21)C(C)C",
    "ASSAYED TARGET": "XIAP Bir2-Bir3-RING (GST-linker BIR2 BIR3RING) (Homo sapiens, UniProt P98170)",
    "READOUT LABEL": "IC50",
    "MEASUREMENT": "> 10 µM"
  },
  {
    "COMPOUND STRUCTURE STRING": "CC(C)[C@H](NC(=O)[C@H](C)N)C(=O)N1CCC[C@H]1CNCCc1ccccc1",
    "ASSAYED TARGET": "XIAP Bir2-Bir3-RING (GST-linker BIR2 BIR3RING) (Homo sapiens, UniProt P98170)",
    "READOUT LABEL": "IC50",
    "MEASUREMENT": "> 10 µM"
  },
  {
    "COMPOUND STRUCTURE STRING": "CN[C@@H](C)C(=O)N[C@H](C(=O)N1CCC[C@H]1CN(CCc1ccccc1)C(=O)CCc1ccccc1)C(C)(C)C",
    "ASSAYED TARGET": "XIAP Bir2-Bir3-RING (GST-linker BIR2 BIR3RING) (Homo sapiens, UniProt P98170)",
    "READOUT LABEL": "IC50",
    "MEASUREMENT": "< 10 µM"
  },
  {
    "COMPOUND STRUCTURE STRING": "CC(C)[C@H](NC(=O)[C@H](C)N)C(=O)N1CCC[C@H]1CN(CCc1ccccc1)C(=O)OCc1ccccc1",
    "ASSAYED TARGET": "XIAP Bir2-Bir3-RING (GST-linker BIR2 BIR3RING) (Homo sapiens, UniProt P98170)",
    "READOUT LABEL": "IC50",
    "MEASUREMENT": "> 10 µM"
  },
  {
    "COMPOUND STRUCTURE STRING": "CC(C)[C@H](NC(=O)[C@H](C)N)C(=O)N1CCC[C@H]1CN(CCc1ccccc1)C(=O)C(F)(F)F",
    "ASSAYED TARGET": "XIAP Bir2-Bir3-RING (GST-linker BIR2 BIR3RING) (Homo sapiens, UniProt P98170)",
    "READOUT LABEL": "IC50",
    "MEASUREMENT": "> 10 µM"
  },
  {
    "COMPOUND STRUCTURE STRING": "CC(=O)N(Cc1ccccn1)C[C@@H]1CCCN1C(=O)[C@@H](NC(=O)[C@H](C)N)C(C)C",
    "ASSAYED TARGET": "XIAP Bir2-Bir3-RING (GST-linker BIR2 BIR3RING) (Homo sapiens, UniProt P98170)",
    "READOUT LABEL": "IC50",
    "MEASUREMENT": "> 10 µM"
  },
  {
    "COMPOUND STRUCTURE STRING": "CC(C)[C@H](NC(=O)[C@H](C)N)C(=O)N1CCC[C@H]1CN(CCCCO)CCc1ccccc1",
    "ASSAYED TARGET": "XIAP Bir2-Bir3-RING (GST-linker BIR2 BIR3RING) (Homo sapiens, UniProt P98170)",
    "READOUT LABEL": "IC50",
    "MEASUREMENT": "< 10 µM"
  },
  {
    "COMPOUND STRUCTURE STRING": "CC(C)[C@H](NC(=O)[C@H](C)N)C(=O)N1CCC[C@H]1CN(CCc1ccccc1)C(=O)Cc1ccccc1",
    "ASSAYED TARGET": "XIAP Bir2-Bir3-RING (GST-linker BIR2 BIR3RING) (Homo sapiens, UniProt P98170)",
    "READOUT LABEL": "IC50",
    "MEASUREMENT": "> 10 µM"
  },
  {
    "COMPOUND STRUCTURE STRING": "CC[C@H](N)C(=O)N[C@H](C(=O)N1CCC[C@H]1CN(CCc1ccccc1)C(C)=O)C(C)C",
    "ASSAYED TARGET": "XIAP Bir2-Bir3-RING (GST-linker BIR2 BIR3RING) (Homo sapiens, UniProt P98170)",
    "READOUT LABEL": "IC50",
    "MEASUREMENT": "> 10 µM"
  }
]
